assay: Particle size analysis (Lecotrac laser particle size analyser) pre and post nanomilling; format: physicochemical; settings: Table C; before nanomilling, 1 g scale
Quick reference for Pre-nanomilling 95% percentile among some molecules

| smilesNotation | Pre-nanomilling 95% percentile |
| --- | --- |
| O=C(NCC1CCCCC1)c1cnc(Nc2cccc(F)c2)nc1C(F)(F)F | 25.5 μ |
| O=C(NCC1CCCC1)c1cnc(Nc2ccc(F)c(Cl)c2)nc1C(F)(F)F | 68.7 μ |
| N#Cc1ccc(Nc2ncc(C(=O)NCC3CCOCC3)c(C(F)(F)F)n2)cc1Cl | 34.9 μ |
| O=C(NCC1CCC1)c1cnc(Nc2ccc(Cl)cc2F)nc1C(F)(F)F | 47.1 μ |
| O=C(NCC1CCC1)c1cnc(Nc2ccc(F)c(Cl)c2)nc1C(F)(F)F | 33.7 μ |
| O=C(NCC1CCOCC1)c1cnc(Nc2ccc(Cl)cc2Cl)nc1C(F)(F)F | 32.7 μ |

---

target: human cannabinoid CB2 receptor (Homo sapiens); test: Cannabinoid CB2 receptor agonist activity (yeast reporter assay, FDGlu fluorescence); assay type: cell-based; details: EC50 value at the cloned human cannabinoid CB2 receptor
Sequence (P34972 whole entry): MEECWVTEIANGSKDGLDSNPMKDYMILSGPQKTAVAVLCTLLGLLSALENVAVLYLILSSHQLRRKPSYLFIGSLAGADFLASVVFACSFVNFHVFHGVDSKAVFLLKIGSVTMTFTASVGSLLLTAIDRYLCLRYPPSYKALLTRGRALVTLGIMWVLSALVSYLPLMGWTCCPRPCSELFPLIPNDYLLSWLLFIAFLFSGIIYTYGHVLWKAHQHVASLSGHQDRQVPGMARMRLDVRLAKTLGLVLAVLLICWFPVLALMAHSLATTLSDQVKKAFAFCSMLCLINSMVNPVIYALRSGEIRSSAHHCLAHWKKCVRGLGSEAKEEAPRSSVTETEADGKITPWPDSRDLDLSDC
pEC50: −log10 of the molar value.

| molecule | pEC50 |
| --- | --- |
| O=C(NCc1ccncc1)c1cnc(Nc2cccc(Br)c2)nc1C(F)(F)F [Example 286] | 6.52 to 7.70 |
| N#Cc1cccc(Nc2ncc(C(=O)NCc3ccccc3)c(C(F)(F)F)n2)c1 [Example 362] | 6.52 to 7.70 |
| O=C(NCc1ccnc(F)c1)c1cnc(Nc2c(Cl)cccc2Cl)nc1C(F)(F)F [Example 358] | 6.52 to 7.70 |
| O=C(NCC1CCOCC1)c1cnc(Nc2ccc(OC(F)(F)F)c(Cl)c2)nc1C(F)(F)F [Example 216] | 6.52 to 7.70 |
| O=C(NCC1CCC1)c1cnc(Nc2ccc(Cl)cc2F)nc1C(F)(F)F [Example 228] | 6.52 to 7.70 |
| O=C(NCC1CCCC1)c1cnc(Nc2ccccc2)nc1C(F)(F)F [Example 251] | 6.52 to 7.70 |
| O=C(c1cnc(Nc2cccc(F)c2)nc1C(F)(F)F)N1CCOCC1 [Example 10] | 6.52 to 7.70 |
| COc1cccc(Nc2ncc(C(=O)NCC3CCC3)c(C(F)(F)F)n2)c1 [Example 205] | 6.52 to 7.70 |
| O=C(NCC1CCC1)c1cnc(Nc2ccc(Br)cc2F)nc1C(F)(F)F [Example 229] | 6.52 to 7.70 |

---

Quick reference for Pre-nanomilling 50% percentile among some compounds
assay: Particle size analysis (Lecotrac laser particle size analyser) pre and post nanomilling; assay type: physicochemical; conditions: Table C; before nanomilling, 1 g scale

| smilesNotation | Pre-nanomilling 50% percentile, μ |
| --- | --- |
| O=C(NCC1CCC1)c1cnc(Nc2ccc(Cl)cc2F)nc1C(F)(F)F | 4.65 |
| N#Cc1ccc(Nc2ncc(C(=O)NCC3CCOCC3)c(C(F)(F)F)n2)cc1Cl | 5.70 |
| O=C(NCC1CCCCC1)c1cnc(Nc2cccc(F)c2)nc1C(F)(F)F | 5.22 |
| O=C(NCC1CCCC1)c1cnc(Nc2ccc(F)c(Cl)c2)nc1C(F)(F)F | 13.2 |
| O=C(NCC1CCC1)c1cnc(Nc2ccc(F)c(Cl)c2)nc1C(F)(F)F | 6.78 |
| O=C(NCC1CCOCC1)c1cnc(Nc2ccc(Cl)cc2Cl)nc1C(F)(F)F | 10.46 |
